Target: EGFR (UniProt P00533)
Sequence (P00533 whole entry, looked up): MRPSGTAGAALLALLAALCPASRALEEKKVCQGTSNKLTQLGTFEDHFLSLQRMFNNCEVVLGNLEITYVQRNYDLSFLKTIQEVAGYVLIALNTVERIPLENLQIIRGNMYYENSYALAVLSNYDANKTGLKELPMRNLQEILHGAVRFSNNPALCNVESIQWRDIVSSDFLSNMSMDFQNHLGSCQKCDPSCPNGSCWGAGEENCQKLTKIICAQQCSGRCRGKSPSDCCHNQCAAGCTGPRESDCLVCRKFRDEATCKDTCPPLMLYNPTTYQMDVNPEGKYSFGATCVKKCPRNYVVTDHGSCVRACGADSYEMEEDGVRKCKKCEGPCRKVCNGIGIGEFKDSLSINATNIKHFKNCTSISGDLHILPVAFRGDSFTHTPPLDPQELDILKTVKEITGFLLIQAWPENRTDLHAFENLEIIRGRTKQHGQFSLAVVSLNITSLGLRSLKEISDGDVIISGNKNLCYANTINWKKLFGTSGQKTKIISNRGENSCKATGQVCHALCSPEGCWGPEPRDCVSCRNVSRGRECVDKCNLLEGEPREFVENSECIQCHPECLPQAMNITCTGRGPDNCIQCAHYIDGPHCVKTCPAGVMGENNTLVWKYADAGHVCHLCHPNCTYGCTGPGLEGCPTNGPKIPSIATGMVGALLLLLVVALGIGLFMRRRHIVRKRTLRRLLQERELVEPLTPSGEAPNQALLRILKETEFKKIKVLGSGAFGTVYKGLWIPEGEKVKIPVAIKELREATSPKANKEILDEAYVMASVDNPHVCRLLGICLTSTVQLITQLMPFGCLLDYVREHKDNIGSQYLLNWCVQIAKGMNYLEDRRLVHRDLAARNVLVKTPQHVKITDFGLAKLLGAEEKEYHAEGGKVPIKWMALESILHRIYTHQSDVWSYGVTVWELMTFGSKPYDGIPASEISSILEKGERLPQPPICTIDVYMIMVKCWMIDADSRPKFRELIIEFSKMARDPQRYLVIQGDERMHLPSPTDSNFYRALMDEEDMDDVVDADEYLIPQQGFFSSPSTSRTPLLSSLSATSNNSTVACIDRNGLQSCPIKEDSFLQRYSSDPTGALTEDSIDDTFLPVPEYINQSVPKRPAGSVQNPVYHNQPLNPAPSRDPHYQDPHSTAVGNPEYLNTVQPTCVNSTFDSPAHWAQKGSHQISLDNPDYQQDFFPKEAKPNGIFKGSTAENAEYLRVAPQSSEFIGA
Readout: IC50

In the examples that follow, each entry is paired with its recorded IC50.
// query Entry NC(=O)c1ccc(Nc2ncnc(-c3cccs3)n2)cc1 : reported IC50 = ?
// result > 4.5 µg/mL

// query Entry COc1cc(Nc2ncnc(-c3cccnc3Nc3cccc(C(N)=O)c3)n2)cc(OC)c1OC : reported IC50 = ?
// result > 4.5 µg/mL

Next:
// query Entry COc1cc(Nc2ncnc(Nc3cc(Cl)c(O)c(Cl)c3)n2)cc(OC)c1OC : reported IC50 = ?
// result < 0.4 µg/mL

// query Entry COc1cc(Nc2ncnc(Nc3ccc(OCC(=O)Nc4ccccc4)cc3)n2)cc(OC)c1OC : reported IC50 = ?
// result 0.4 to 2.4 µg/mL

// query Entry COc1cc(Nc2ncnc(-c3cccc4ccccc34)n2)cc(OC)c1OC : reported IC50 = ?
// result > 4.5 µg/mL

// query Entry CCc1ccc(Nc2nc3ccccc3n2-c2ncnc(Nc3cc(OC)c(OC)c(OC)c3)n2)cc1 : reported IC50 = ?
// result < 0.4 µg/mL

// query Entry COc1cc(Nc2ncnc(-n3c(N[C@@H](C)c4ccccc4)nc4ccccc43)n2)cc(OC)c1OC : reported IC50 = ?
// result 2.4 to 3.5 µg/mL

* * *

The following are reported IC50 results, target or system EGFR (UniProt P00533).

// query Entry COc1cc(Nc2ncnc(-c3cccnc3NC(C)C)n2)ccc1NC(=O)CCCN1CCNCC1 : reported IC50 = ?
// result > 4.5 µg/mL

// query Entry O=C(O)Cc1cccc(Nc2ncnc(Nc3ccc(Cl)cc3F)n2)c1 : reported IC50 = ?
// result 0.4 to 2.4 µg/mL

// query Entry Nc1nc2ccccc2n1-c1ncnc(Nc2ccc(S(N)(=O)=O)cc2)n1 : reported IC50 = ?
// result > 4.5 µg/mL

// query Entry COC(=O)C(c1ccccc1)c1ncnc(Nc2cc(OC)c(OC)c(OC)c2)n1 (stereo not drawn) : reported IC50 = ?
// result > 4.5 µg/mL

// query Entry COc1cc(C)c(Nc2ncnc(-n3c(N)nc4ccccc43)n2)cc1OC : reported IC50 = ?
// result > 4.5 µg/mL

// query Entry COc1ccc(Nc2ncnc(N(C)c3ccc(F)cc3F)n2)cc1OC : reported IC50 = ?
// result < 0.4 µg/mL

// query Entry CC(C)(C)c1cc(Nc2ncnc(Nc3ccc(CC(=O)O)cc3)n2)[nH]n1 : reported IC50 = ?
// result 0.4 to 2.4 µg/mL

// query Entry COc1cc(Nc2ncnc(-c3cccnc3NCc3ccc(F)cc3)n2)cc(OC)c1OCCN1CCOCC1 : reported IC50 = ?
// result 2.4 to 3.5 µg/mL

* * *

Target: EGFR (UniProt P00533)
Overview of reported IC50 across a group of compounds:

// query Request body: readout IC50, system EGFR (UniProt P00533), query CCOc1cccc(Nc2ncnc(Nc3cc(-c4ccc(C(=O)OC)cc4)n[nH]3)n2)c1 . Return the value.
// result > 4.5 µg/mL

Next:
// query Request body: readout IC50, system EGFR (UniProt P00533), query CC(C)Nc1ncccc1-c1ncnc(Nc2ccc(N3CCOCC3)cc2)n1 . Return the value.
// result 0.4 to 2.4 µg/mL

// query Request body: readout IC50, system EGFR (UniProt P00533), query COc1ccc(Oc2ncnc(Nc3cc(OC)c(OC)c(OC)c3)n2)cc1 . Return the value.
// result 2.4 to 3.5 µg/mL

// query Request body: readout IC50, system EGFR (UniProt P00533), query COc1cccc(Nc2ncnc(N(C)c3cccc(Cl)c3)n2)c1 . Return the value.
// result < 0.4 µg/mL

// query Request body: readout IC50, system EGFR (UniProt P00533), query COc1ccc(Nc2ncnc(N(C)c3ccccc3Cl)n2)cc1OC . Return the value.
// result < 0.4 µg/mL

// query Request body: readout IC50, system EGFR (UniProt P00533), query CN(c1cccc(Cl)c1)c1ncnc(Nc2cc(-c3ccco3)[nH]n2)n1 . Return the value.
// result < 0.4 µg/mL
